Recorded values, source patent US12516046B2.

Target: human Nav1.8 (Homo sapiens (Human), UniProt Q9Y5Y9)
Sequence (Q9Y5Y9 whole entry): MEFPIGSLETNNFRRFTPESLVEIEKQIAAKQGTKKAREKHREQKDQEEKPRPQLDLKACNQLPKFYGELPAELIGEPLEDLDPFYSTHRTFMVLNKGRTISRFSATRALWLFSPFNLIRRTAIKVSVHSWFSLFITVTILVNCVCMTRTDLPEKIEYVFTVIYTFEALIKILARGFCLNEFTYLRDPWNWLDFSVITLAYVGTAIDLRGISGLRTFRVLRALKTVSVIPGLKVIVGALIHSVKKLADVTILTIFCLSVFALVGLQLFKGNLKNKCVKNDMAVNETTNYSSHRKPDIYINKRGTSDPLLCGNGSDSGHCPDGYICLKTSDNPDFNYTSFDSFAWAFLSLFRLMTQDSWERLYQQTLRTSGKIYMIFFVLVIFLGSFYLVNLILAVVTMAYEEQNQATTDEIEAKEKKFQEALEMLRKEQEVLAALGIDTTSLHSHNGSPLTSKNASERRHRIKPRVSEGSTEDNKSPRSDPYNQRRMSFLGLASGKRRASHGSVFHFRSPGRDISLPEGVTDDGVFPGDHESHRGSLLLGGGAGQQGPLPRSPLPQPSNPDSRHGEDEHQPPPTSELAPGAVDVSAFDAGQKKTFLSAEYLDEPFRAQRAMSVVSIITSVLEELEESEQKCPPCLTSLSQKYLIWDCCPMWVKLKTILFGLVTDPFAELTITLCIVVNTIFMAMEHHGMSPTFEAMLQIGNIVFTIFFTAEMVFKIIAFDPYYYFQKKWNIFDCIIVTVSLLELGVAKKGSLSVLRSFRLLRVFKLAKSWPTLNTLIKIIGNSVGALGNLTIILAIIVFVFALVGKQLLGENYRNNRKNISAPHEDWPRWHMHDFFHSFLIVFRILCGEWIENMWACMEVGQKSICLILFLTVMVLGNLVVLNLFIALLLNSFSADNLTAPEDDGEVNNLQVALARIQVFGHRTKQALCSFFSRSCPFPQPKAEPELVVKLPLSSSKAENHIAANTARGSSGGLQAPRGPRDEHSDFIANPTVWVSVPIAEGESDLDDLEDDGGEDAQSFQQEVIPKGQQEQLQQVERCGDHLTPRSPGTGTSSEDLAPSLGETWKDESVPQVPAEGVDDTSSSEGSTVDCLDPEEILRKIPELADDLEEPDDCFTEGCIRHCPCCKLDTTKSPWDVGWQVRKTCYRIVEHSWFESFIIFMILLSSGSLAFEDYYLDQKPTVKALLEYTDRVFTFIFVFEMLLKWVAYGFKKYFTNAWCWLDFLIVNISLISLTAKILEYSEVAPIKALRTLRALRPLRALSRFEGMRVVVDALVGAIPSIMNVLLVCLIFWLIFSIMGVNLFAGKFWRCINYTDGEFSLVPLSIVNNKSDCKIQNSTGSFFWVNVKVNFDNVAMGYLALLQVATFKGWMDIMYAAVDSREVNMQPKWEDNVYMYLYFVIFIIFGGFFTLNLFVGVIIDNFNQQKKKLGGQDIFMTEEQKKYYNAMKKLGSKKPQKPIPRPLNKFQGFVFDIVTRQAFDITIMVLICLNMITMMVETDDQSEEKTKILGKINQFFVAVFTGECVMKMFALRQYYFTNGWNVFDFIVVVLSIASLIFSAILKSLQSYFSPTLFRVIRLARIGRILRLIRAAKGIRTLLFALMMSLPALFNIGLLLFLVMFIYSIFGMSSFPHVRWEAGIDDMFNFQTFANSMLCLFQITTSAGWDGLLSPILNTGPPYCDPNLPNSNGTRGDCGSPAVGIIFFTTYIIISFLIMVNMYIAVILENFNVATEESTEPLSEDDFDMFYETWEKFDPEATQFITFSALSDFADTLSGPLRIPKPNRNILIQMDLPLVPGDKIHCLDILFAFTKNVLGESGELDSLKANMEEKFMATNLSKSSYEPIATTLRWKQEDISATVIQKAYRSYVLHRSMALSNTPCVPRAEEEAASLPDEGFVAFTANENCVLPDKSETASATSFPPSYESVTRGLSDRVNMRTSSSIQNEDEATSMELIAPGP
Assay: Nav1.8 Qube® Assay (automated 384-well patch-clamp)
Settings: human Nav1.8 channels stably expressed in HEK 293 cells
pIC50: −log10 of the molar value.
test readout: pIC50

compound	target or system	pIC50
O=C1NC[C@@H](C(=O)NC(c2ccc(F)c(Cl)c2)c2ccc(Cl)cn2)O1 (single isomer, unassigned) [Example 14B]	human Nav1.8 (Homo sapiens (Human), UniProt Q9Y5Y9)	7.47
O=C1NC[C@@H](C(=O)NC(c2ccc(Cl)cc2)c2ccc(Cl)cc2OC(F)(F)F)O1 (single isomer, unassigned) [Example 47A]	human Nav1.8 (Homo sapiens (Human), UniProt Q9Y5Y9)	8.80

(A) O=C1NC[C@@H](C(=O)NC(c2ccc(OC(F)(F)F)c(Cl)c2)c2coc(C(F)(F)F)n2)O1 (single isomer, unassigned) [Example 51A]
(B) O=C1NC[C@@H](C(=O)NC(c2ccc(Cl)cc2)c2c[nH]c(C(F)(F)F)n2)O1 (single isomer, unassigned) [Example 17B]
Exercise: Which record would sort first by descending pIC50, A or B ? Select an item and report its label.
Solution: A

(a) O=C1NC[C@@H](C(=O)NC(c2ccc(F)c(Cl)c2)c2csc(C(F)(F)F)n2)O1 (single isomer, unassigned) [Example 44B]
(b) COc1ccc(Cl)cc1C(NC(=O)[C@@H]1CNC(=O)O1)c1cccc(Cl)c1 (single isomer, unassigned) [Example 28B]
Exercise: Among a and b , whose measured pIC50 is the smaller figure? Select an item and report its label.
Solution: a
(a: 7.77, b: 8.08)
